src = the supplement of paper PMC7411054

- System: WPMY1-CANX-COX4
- Test: lowest phenotypically active concentration; higher = less potent
- Reported conditions: treatment time: 24 h
Where a name gives a salt, the structure may show the parent alone.
Observable: lowest phenotypically active concentration

So for Cc1ccc(NC2=CC(=O)c3sc(C)nc3C2=O)cc1 , the logged lowest phenotypically active concentration turned out to be 3 µM

Documented lowest phenotypically active concentration of CNC(=O)Nc1ccc(-c2nc(N3CC4CCC(C3)O4)c3cnn(C4CCC5(CC4)OCCO5)c3n2)cc1 : ≤ 0.3 µM

The recorded lowest phenotypically active concentration for CCN(CCO)CCCOc1ccc2c(Nc3cc(CC(=O)Nc4cccc(F)c4)n[nH]3)ncnc2c1 is ≤ 0.3 µM

Reported lowest phenotypically active concentration ( COc1ccc(CNC(=O)Nc2ncc([N+](=O)[O-])s2)cc1 ) = 9 µM

The recorded lowest phenotypically active concentration for entry CO[C@H]1C[C@@H]2CC[C@@H](C)[C@@](O)(O2)C(=O)C(=O)N2CCCC[C@H]2C(=O)O[C@H]([C@H](C)C[C@@H]2CC[C@@H](OC(=O)C(C)(CO)CO)[C@H](OC)C2)CC(=O)[C@H](C)C=C(C)[C@@H](O)[C@@H](OC)C(=O)[C@H](C)C[C@H](C)C=CC=CC=C1C equals ≤ 0.3 µM

The compound listed as Nc1ncnc2c1c(-c1cnc3[nH]ccc3c1)nn2C1CCCC1 has a reported lowest phenotypically active concentration of 1 µM

// sample CCN(CC)CCNc1ccc(CO)c2sc3ccccc3c(=O)c12 , its lowest phenotypically active concentration was 9 µM

Item: O=S(=O)(c1cccc2c(O)nccc12)N1CCCNCC1 [HA 1100 hydrochloride] | lowest phenotypically active concentration: 3 µM

compound CCCc1cc(C)n(C)c(=O)c1CN(C)C(=O)c1cc(-c2ccc(N3CCN(C(C)C)CC3)nc2)cc2c1cnn2C(C)C , lowest phenotypically active concentration observed: 3 µM

---

Can you tell me lowest phenotypically active concentration for the items I'm about to list?
- Test system: A549-TUBA1B-RELA
- Test: lowest phenotypically active concentration; higher = less potent
- Reported conditions: treatment time: 24 h
Counter-ions that a name gives are not always drawn.
Kindly answer with a numeric value in µM, unit omitted.

Form field, lowest phenotypically active concentration with A549-TUBA1B-RELA, item O=C1N=C(NCc2cccs2)S/C1=C\c1ccc2ncccc2c1 : 3

Simply: CC1(C)CC(=O)C2=C(C1)NC(=S)NC2c1cccc(O)c1 (stereo not given) [Dimethylenastron] , A549-TUBA1B-RELA, lowest phenotypically active concentration = 1

Reading of lowest phenotypically active concentration for CC(C)(N)c1cc(C(=O)N[C@@H]2CCc3ccc(OC4=C5CCC(=O)N=C5NC=C4)cc3C2)cc(C(F)(F)F)c1 [ML 786 dihydrochloride] with A549-TUBA1B-RELA: 1

# lowest phenotypically active concentration measured on A549-TUBA1B-RELA for item COc1ccc(CCNCc2ccc(OCc3ccc(Cl)nc3)c(OC)c2)cc1OC [SBE 13 hydrochloride] = 3

Short answer on A549-TUBA1B-RELA for CNc1nc(-c2ccc3c(N)n[nH]c3c2)cc(N2C[C@@H](C(=O)NC3CCCCC3)CC[C@H]2C)n1 , lowest phenotypically active concentration: 3

Measured on A549-TUBA1B-RELA, O=C(NOCC1CC1)c1ccc(F)c(F)c1Nc1ccc(I)cc1Cl has a documented lowest phenotypically active concentration of 9

GET /values?item= N#C/C(=C/c1ccc(O)c(O)c1)C(=O)NCCCCc1ccccc1 &system= A549-TUBA1B-RELA returns lowest phenotypically active concentration: 9

# lookup: Cc1ccc(NC(=O)c2ccc(CN3CCN(C)CC3)cc2)cc1Nc1nc(-c2cccnc2)cs1 [masitinib] on A549-TUBA1B-RELA, lowest phenotypically active concentration = 3

Sample CNCCCC12CCC(c3ccccc31)c1ccccc12 [maprotiline] , system: A549-TUBA1B-RELA. Its lowest phenotypically active concentration is 3

A549-TUBA1B-RELA assay, compound COc1cc(NC(=O)c2cccc(-n3cc(NC(=O)Nc4cccc(C)c4)cn3)c2)cc(OC)c1OC , recorded lowest phenotypically active concentration = 9

Form field lowest phenotypically active concentration for item CN(C)c1ccc(/C=C2\C(=O)Nc3ccccc32)cc1 on A549-TUBA1B-RELA: 9

Here CC(=O)Nc1ccc(NC(=S)NC(=O)c2ccc(C(C)(C)C)cc2)cc1 [Tenovin-1] was tested on A549-TUBA1B-RELA, and its lowest phenotypically active concentration came to 1

Entry C[C@@H](CN1CCC(n2c(=O)[nH]c3cc(Cl)ccc32)CC1)NC(=O)c1ccc2ccccc2c1 ; assay system A549-TUBA1B-RELA; lowest phenotypically active concentration recorded at 3

A549-TUBA1B-RELA data for Cc1cnc(NC(=O)Nc2cc(Br)c(C)cc2OC[C@@H]2CNCCO2)cn1 ; its lowest phenotypically active concentration: 1

Bench note, A549-TUBA1B-RELA: O=C(Nc1ccncc1)c1cc([N+](=O)[O-])ccc1Cl , lowest phenotypically active concentration reads 9

Summary line: OC[C@H]1O[C@@H](n2cnc3c(NCc4ccco4)ncnc32)[C@H](O)[C@@H]1O [Kinetin riboside] , A549-TUBA1B-RELA, reported lowest phenotypically active concentration = 3

Field lowest phenotypically active concentration (A549-TUBA1B-RELA), entry NC1(C(=O)N[C@@H](CCO)c2ccc(Cl)cc2)CCN(c2ncnc3[nH]ccc23)CC1 : 3

# value of lowest phenotypically active concentration, A549-TUBA1B-RELA, item Cc1nc(Nc2ncc(C(=O)Nc3c(C)cccc3Cl)s2)cc(N2CCN(CCO)CC2)n1 [dasatinib] = 1

Per the reported A549-TUBA1B-RELA data, C[C@@H](Nc1ncnc2[nH]c(-c3ccc(O)cc3)cc12)c1ccccc1 [PKI 166 hydrochloride] has lowest phenotypically active concentration of 3

Record for OCc1cc(C(O)CNCCCCCCOCCCCc2ccccc2)ccc1O (stereo not given) [salmeterol] under target or system A549-TUBA1B-RELA: lowest phenotypically active concentration reported as 9

Summary: O=C1Cc2c([nH]c3ccc(Br)cc23)-c2ccccc2N1 [Kenpaullone] , A549-TUBA1B-RELA, lowest phenotypically active concentration = 3

The compound NC(=O)C(c1ccccc1)(c1ccccc1)[C@@H]1CCN(CCc2ccc3c(c2)CCO3)C1 [darifenacin] , tested on A549-TUBA1B-RELA, showed lowest phenotypically active concentration of 9

Form: item O=C(/C=C/c1ccc(O)cc1)c1ccc(O)cc1O [Isoliquiritigenin] ; test system A549-TUBA1B-RELA; lowest phenotypically active concentration: 9

Test item CN(C)CC(=O)N1CCC[C@@H](n2nc(-c3ccc(Oc4ccccc4)cc3)c3c(N)ncnc32)C1 ; A549-TUBA1B-RELA; reported lowest phenotypically active concentration was 1

Summary: O=C(Nc1cccnc1)N1CCC(Cc2cccc(Oc3ccc(C(F)(F)F)cn3)c2)CC1 , A549-TUBA1B-RELA, lowest phenotypically active concentration = 9

O=C(OC12CC3CC(CC(C3)C1)C2)c1ccc(NCc2cc(O)ccc2O)cc1 [Adaphostin] on A549-TUBA1B-RELA gives lowest phenotypically active concentration = 3

Noted lowest phenotypically active concentration for C[C@]1(O)C[C@@H](c2nc(-c3ccc4ccc(-c5ccccc5)nc4c3)c3c(N)nccn32)C1 [linsitinib] , tested on A549-TUBA1B-RELA: 3
